Here we gather pIC50 data for Cytochrome P450 2C19 (Homo sapiens) reported by several publications.
pIC50: −log10 of the molar value.

Query :: Form field - read-out: pIC50; system: Cytochrome P450 2C19 (Homo sapiens); submitted item: "CC(C)(NC(=O)[C@H]1[C@@H]2CNC[C@H]1C2)c1nc(C2CC2)c2ccccn12"
Result :: < 5.00

Query :: Form field - read-out: pIC50; system: Cytochrome P450 2C19 (Homo sapiens); submitted item: "N#Cc1ccc(COc2cccc(-c3ccc(Cc4nc5sc(C(=O)O)cc5n4C[C@@H]4CCO4)c(F)c3)n2)c(F)c1"
Result :: < 4.30

Query :: Form field - read-out: pIC50; system: Cytochrome P450 2C19 (Homo sapiens); submitted item: "Fc1cc(Cl)c2nc(Nc3ccc(C4(C(F)(F)F)CC4)cc3)ccc2c1"
Result :: 5.24

Query :: Form field - read-out: pIC50; system: Cytochrome P450 2C19 (Homo sapiens); submitted item: "Cn1cc2c(n1)c(=O)n(-c1cccnc1)c1cc(Cl)ccc21"
Result :: < 5.00

Query :: Form field - read-out: pIC50; system: Cytochrome P450 2C19 (Homo sapiens); submitted item: "CC(C)(O)c1cc(Cl)c(-c2cnc(C(C)(C)O)c(N)c2)cc1N"
Result :: < 4.30

Query :: Form field - read-out: pIC50; system: Cytochrome P450 2C19 (Homo sapiens); submitted item: Cc1ncccc1-n1c(=O)c2nn(C)cc2c2ccc(C(F)(F)F)nc21 (single isomer, unassigned)
Result :: < 5.00

Query :: Form field - read-out: pIC50; system: Cytochrome P450 2C19 (Homo sapiens); submitted item: "C#Cc1ccc2c3c([nH]c2c1)[C@@H](c1c(F)cc(N[C@H]2CCN(CCCF)C2)cc1F)N(CC(F)(F)F)[C@H](C)C3"
Result :: < 4.30

Query :: Form field - read-out: pIC50; system: Cytochrome P450 2C19 (Homo sapiens); submitted item: "Cn1cc2c(n1)c(=O)n(-c1cccc3[nH]ncc13)c1nc(C(F)(F)F)ccc21"
Result :: < 4.52
